Taken from paper PMC10465345.

- Substrate: CC1=C(CCC(=O)O)c2cc3nc(cc4[nH]c(cc5[nH]c(cc1n2)c(C)c5CCC(=O)O)c(CCC(=O)O)c4C)C(CCC(=O)O)=C3C
- Test: purified protein
- Type: biochemical, Corynebacterium glutamicum
- Particulars: ferrous ammonium sulfate 100 uM, Tris-HCl pH 8.0, 3.3% Tween 20, 5 mM glutathione, 30 °C
Property: kcat/Km (M⁻¹ s⁻¹)
State just the number; it will be interpreted in M⁻¹ s⁻¹.

The recorded kcat/Km for entry CpfC (coproporphyrin ferrochelatase) (Corynebacterium glutamicum ATCC 13032; E181G) (protein, heterologously expressed in E. coli BL21, purified) MNERTSDAFDALLVLSFGGPEGHEEVRPFLENVTHGRGIPPERLDEVAVHYHHFGGISPINALNREIIANVEKELASRDHKLPVYFGNRNWKPFDNEAAEQMADDGVKNALVLATSAWGGYSGCRQYQEDIQGMIKHLESQGQSITFTKLRQFYDHPRFVSTMAQLVQDSYAKLPDELRDGARLVFTAHSIPLTADNAAGTPEDGSLYSTQVKEASALIAEAVGVSDFDVVWQSRSGSPHTPWLEPDIVDHAVELNEKGQKALVVCPVGFISDHMEVIWDLDSELMEEAEKRNMVVERVATVGPTDEFAALVVDLIEEAELKRVIERLGKLPARGSSVNGAPCGDGCCGTAKHKTARVNPNARSAAPAAN equals 30600
